molecular target: D(2) dopamine receptor (Homo sapiens) (UniProt P14416); assay: Dopamine D2 receptor (DRD2) small molecule antagonists, cell-based qHTS assay (AID 1963595); details: HEK293-DRD2 cAMP HTRF antagonist mode; series mostly up to 92.4 µM
Sequence (P14416 whole entry, looked up): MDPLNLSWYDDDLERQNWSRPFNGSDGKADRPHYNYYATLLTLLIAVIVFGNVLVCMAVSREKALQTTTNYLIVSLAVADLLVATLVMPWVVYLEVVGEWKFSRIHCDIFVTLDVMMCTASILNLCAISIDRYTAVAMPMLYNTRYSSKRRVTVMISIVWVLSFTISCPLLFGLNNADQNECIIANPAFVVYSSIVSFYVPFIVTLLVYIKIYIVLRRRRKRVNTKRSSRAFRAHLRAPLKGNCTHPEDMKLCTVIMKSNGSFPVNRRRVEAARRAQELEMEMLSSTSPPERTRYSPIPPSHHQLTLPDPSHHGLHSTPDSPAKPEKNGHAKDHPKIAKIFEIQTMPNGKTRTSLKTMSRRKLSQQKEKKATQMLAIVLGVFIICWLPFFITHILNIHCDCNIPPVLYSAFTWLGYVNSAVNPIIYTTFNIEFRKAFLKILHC
Records with an inconclusive call do not appear. Calls of active or inactive are those of the source. Calls come from the whole dose curve; as a rule, active = well fitted inhibition curve with a large enough effect in the signal ratio in the repeat runs, with a control signal flat; inconclusive = weak or mixed curves, or effect the other way; inactive = flat fitted curve, though single readings scatter; the % refers to the signal ratio.
Output constraint: value belongs to 1 (active), -1 (inactive)

Use the examples below as a reference point.
compound: O=C(Cl)c1cc(C(=O)Cl)cc(C(=O)Cl)c1
labelClass: -1

compound: CCCCCOC(=O)COc1cc(N2C(=O)C3=C(CCCC3)C2=O)c(F)cc1Cl
labelClass: -1

compound: Clc1ccc(C(Cn2ccnc2)OCc2ccc(Sc3ccccc3)cc2)c(Cl)c1 (configuration not stated)
labelClass: -1

compound: OC12N=C(c3ccccc3)SC1Cc1cc(Cl)ccc12 (configuration not stated)
labelClass: -1

compound: O=C(Nc1ccc2c(c1)Cc1ccccc1-2)C(F)(F)F
labelClass: -1

compound: O=C1c2ccccc2C(=O)c2c(O)ccc(O)c21
labelClass: -1

compound: CCCC(=O)OCCC(C)CCC=C(C)C (configuration not stated)
labelClass: -1

compound: Cc1nc2c([nH]1)c(=O)n(C)c(=O)n2Cc1ccco1
labelClass: -1

Consider now this further compound.
Ask: Write down the call the test reported for this compound. Item: O=Cc1ccc(Cl)c([N+](=O)[O-])c1
Reply: -1

###

target: Beta-2 adrenergic receptor (Homo sapiens); test: Adrenergic beta2 receptor (ADRB2) small molecule antagonists, cell-based qHTS assay (AID 1963592); conditions: CHO-ADRB2 cells, isoproterenol-stimulated cAMP HTRF ratio, 0.5 h; series mostly up to 92.4 µM; note: nearly all actives have a fitted effect of over 50% in size
Inconclusive results are not listed. Calls of active or inactive are those of the source. Calls come from the whole dose curve.
Pick from y (active), n (inactive) when you respond.

compound: O=C(O)CNC(=O)c1ccccc1
labelClass: n

compound: Oc1ccc(C2(c3ccc(O)cc3)CC3CC2C2CCCC32)cc1 (configuration not stated)
labelClass: n

Ask: Which outcome was assigned to O=C1CCC/C=C\CCCCCCCCCC1 in this test?
Reply: n

Ask: // outcome(item) with item = COc1ccc2cc1Oc1ccc(cc1)C[C@H]1c3c(cc4c(c3Oc3cc5c(cc3OC)CCN(C)[C@@H]5C2)OCO4)CCN1C
Reply: n

Ask: Which result was noted for this compound in the test: c1ccc(C(O[C@@H]2CCCN(CCc3ccc4c(c3)OCO4)C2)c2ccccc2)cc1
Reply: y

Ask: Which outcome did this test record for the compound C[C@@H](Oc1ccc(CNC(=O)c2cccnc2Oc2ccc3c(c2)OCO3)c(F)c1)C(=O)O ?
Reply: n

Ask: Given CC(C)CCCC(C)CC=O (configuration not stated) , state the outcome it received in this test.
Reply: n

###

molecular target: D(2) dopamine receptor (Homo sapiens) (UniProt P14416); experiment: Dopamine D2 receptor (DRD2) small molecule antagonists, cell-based qHTS assay (AID 1963595); settings: HEK293-DRD2 cAMP HTRF antagonist mode; series mostly up to 92.4 µM; note: potency is the fitted concentration of half-maximal effect
Results filed as inconclusive are left out. Activity calls are given as the source filed them. The call rests on the fitted dose curve; in most records, active means well fitted inhibition curve with a large enough effect in the signal ratio in the repeat runs, with a control signal flat; inconclusive means weak or mixed curves, or effect the other way; inactive means flat fitted curve, though single readings scatter; the % refers to the signal ratio.
measurementType: Potency

Worked cases, answers included:
compound: CC(C)C[C@H](NC(=O)[C@H](Cc1ccccc1)NC(=O)c1cnccn1)B(O)O
tgt: D(2) dopamine receptor (Homo sapiens) (UniProt P14416)
Potency: inactive

compound: Cc1c(Cl)c(=O)oc2cc(O)ccc12
tgt: D(2) dopamine receptor (Homo sapiens) (UniProt P14416)
Potency: inactive

compound: COC(=O)CSc1cc(N=c2sc(=O)n3n2CCCC3)c(F)cc1Cl
tgt: D(2) dopamine receptor (Homo sapiens) (UniProt P14416)
Potency: inactive

compound: C=Cc1ccc(O)c(OC)c1
tgt: D(2) dopamine receptor (Homo sapiens) (UniProt P14416)
Potency: inactive

compound: NCCNC(=O)c1ccc(Cl)cn1
tgt: D(2) dopamine receptor (Homo sapiens) (UniProt P14416)
Potency: inactive

compound: CC/C=C\CCOC(C)OCC (centres undefined)
tgt: D(2) dopamine receptor (Homo sapiens) (UniProt P14416)
Potency: inactive

compound: COc1ccc(-c2cc(=S)ss2)cc1
tgt: D(2) dopamine receptor (Homo sapiens) (UniProt P14416)
Potency: inactive

compound: O=C(c1ccccc1)C1CCCCC1
tgt: D(2) dopamine receptor (Homo sapiens) (UniProt P14416)
Potency: inactive

Measured Potency, CC(C)CC(C)(C)C : inactive

Consider O=[N+]([O-])C1(Br)COCOC1 . Its measured Potency is inactive

Lookup result for O=C1CN(/N=C/c2ccc([N+](=O)[O-])o2)C(=O)N1 ; measured Potency: inactive

Entry CC(=O)c1ccc2c(c1)N(CCCN1CCC(CCO)CC1)c1ccccc1S2 — recorded Potency = 0.0168 µM (active)

Recorded Potency (compound O/N=C/C=N/O ): inactive

# Potency (compound: CCC(=O)OCCc1ccccc1 ) is inactive
